- study system: PDGFRβ (Rattus norvegicus (Rat), UniProt Q05030)
- Sequence (Q05030 whole entry, looked up): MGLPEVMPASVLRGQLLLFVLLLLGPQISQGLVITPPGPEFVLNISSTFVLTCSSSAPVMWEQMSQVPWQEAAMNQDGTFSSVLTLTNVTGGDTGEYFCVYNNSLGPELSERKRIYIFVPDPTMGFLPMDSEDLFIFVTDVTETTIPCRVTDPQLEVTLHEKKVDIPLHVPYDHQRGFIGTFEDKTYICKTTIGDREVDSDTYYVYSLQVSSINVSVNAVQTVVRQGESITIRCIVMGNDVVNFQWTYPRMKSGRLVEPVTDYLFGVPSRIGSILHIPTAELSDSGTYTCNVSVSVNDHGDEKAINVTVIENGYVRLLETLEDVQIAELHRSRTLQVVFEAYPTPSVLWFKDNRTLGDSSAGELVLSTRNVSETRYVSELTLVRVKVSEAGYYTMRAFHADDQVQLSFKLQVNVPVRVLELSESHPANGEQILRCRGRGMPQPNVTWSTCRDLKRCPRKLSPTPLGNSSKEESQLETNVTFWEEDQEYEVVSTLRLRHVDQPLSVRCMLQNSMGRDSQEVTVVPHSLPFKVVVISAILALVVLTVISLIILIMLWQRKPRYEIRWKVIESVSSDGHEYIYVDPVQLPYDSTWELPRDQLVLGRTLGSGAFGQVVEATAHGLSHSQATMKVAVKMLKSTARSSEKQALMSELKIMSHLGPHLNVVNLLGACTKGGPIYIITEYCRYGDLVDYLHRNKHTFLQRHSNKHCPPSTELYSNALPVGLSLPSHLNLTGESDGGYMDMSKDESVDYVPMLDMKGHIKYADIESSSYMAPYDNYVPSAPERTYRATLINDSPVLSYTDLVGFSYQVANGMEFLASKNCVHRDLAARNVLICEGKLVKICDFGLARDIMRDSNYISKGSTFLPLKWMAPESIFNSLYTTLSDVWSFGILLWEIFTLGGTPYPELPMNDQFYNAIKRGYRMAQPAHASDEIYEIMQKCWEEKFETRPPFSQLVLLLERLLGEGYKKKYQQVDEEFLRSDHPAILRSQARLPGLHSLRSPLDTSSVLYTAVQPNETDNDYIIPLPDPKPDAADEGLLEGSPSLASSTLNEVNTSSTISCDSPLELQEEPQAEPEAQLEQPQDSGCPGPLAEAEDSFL
- measurement notes: PDGFRβ Cellular Assay (PDGFRb P-Y751 HTRF, PDGF-BB stimulated A10 cells)
- Format: cell-based
- particulars: A10 cells, 3 hours compound, 15 ng/mL PDGFbb for 10 minutes; read-out: PDGFR Cellular IC50
IC50 strictly less than 0.02 µM = True. Otherwise False.

is_below(IC50, 0.02 µM) for Cc1ncc(C(=O)NCCN(CCO)C2CCCC2)cc1Nc1nn(C)c2nc(Nc3cnn(C)c3)ncc12 ?
False

Here's an entry: COC(=O)Cc1cccc(Nc2ncc3c(Nc4cc(C(=O)NCCN5CCCC5(C)C)cnc4C)nn(C)c3n2)c1 . Is its IC50 below 0.02 µM?
False

Item CO[C@@H]1CCN(CC(=O)Nc2cnc(C)c(Nc3nn(C)c4nc(Nc5cnn(C)c5)ncc34)c2)C1 : IC50 beneath 0.02 µM, strictly?
True

Hello, I'm reviewing records and need to know if IC50 of Cc1ccc(C(=O)NCCN2CCC(F)(F)CC2)cc1Nc1nn(C)c2nc(Nc3cnn(C)c3)ncc12 is below 0.02 µM. Could you check?
True

Lab log: compare recorded IC50 with 0.02 µM; is it strictly lower for Cc1ncc(C(=O)NCCN2CCCC2(C)C)cc1Nc1nn(C)c2nc(Nc3cccc(CC(=O)O)c3)ncc12 ?
False

Criterion: IC50 strictly below 0.02 µM. Is it met by Cc1ncc(C(=O)NCCN2CCCC2(C)C)cc1Nc1nn(C)c2nc(Nc3cccc(C(C)(C)C(=O)O)c3)ncc12 ?
False

IC50 under 0.02 µM? Item: COc1ncccc1Nc1ncc2c(Nc3cc(NC(=O)CN4CCC[C@@H]4C)cnc3C)nn(C)c2n1
True

Is the reported IC50 for Cc1ncc(C(=O)NCCN2CCC(F)(F)CC2)cc1Nc1nn(C)c2nc(Nc3cncnc3)ncc12 strictly below 0.02 µM?
True
